We begin with pKi values for Procathepsin L (Homo sapiens), as collected from the published literature.
Here pKi is given on a logarithmic scale as minus log10 of the concentration in mol/L.

N#CCNC(=O)C1(NC(=O)OCc2ccccc2)CCCCC1
4.58
N=C(N)NCCC[C@H](NC(=O)[C@H](CS)NC(=O)Cc1ccc(-c2ccccc2)cc1)C(=O)N[C@@H](Cc1ccc2ccccc2c1)C(=O)NCCc1ccccc1
6.80

Would you kindly look at the next entry?
Measured pKi, C[C@@H](CNc1ccc(OC(F)(F)F)cc1)NC(=O)[C@H](CC(C)(C)C)NC(=O)N1CCOCC1 : 4.84
